experimentalDetails: qHTS assay to test for compound auto fluorescence at 590 nm (red) in HEK293 cells (AID 720679); note: % is set by controls: 0 for no effect and ±100 for the full control effect
recordedConditions: red autofluorescence 540/590 nm; series mostly up to 46 µM
Calls of active or inactive are those of the source. Calls come from the whole dose curve; as a rule, active = well fitted curve in the direction sought with a large enough effect in the repeat runs; inconclusive = weak or mixed curves; inactive = flat fitted curve, though single readings scatter.
assayReadout: outcome

compound=O=C(O)/C=C/C(=O)O observedvalue=inactive
compound=S=C(S)N1CCNCC1 observedvalue=inactive
compound=CCCSc1cc(OC)c(CCN)cc1OC observedvalue=inactive
compound=CC(=O)[C@H]1CC[C@H]2[C@@H]3CC[C@@H]4C[C@H](O)CC[C@]4(C)[C@H]3CC[C@]12C observedvalue=inactive
compound=Oc1cccc[c]1[Hg][Cl] observedvalue=inactive
compound="c1ccc2c(c1)Sc1ccccc1N2CC1CN2CCC1CC2 (stereo unspecified)" observedvalue=inactive
compound=CN[C@]1(c2ccccc2Cl)CCCCC1=O observedvalue=inactive
compound=OC[C@@H](O)[C@H]1O[C@@H]2O[C@@H](C(Cl)(Cl)Cl)O[C@@H]2[C@H]1O observedvalue=inactive
compound=CC1(C)[C@H](C=C(Cl)Cl)[C@H]1C(=O)OCc1c(F)c(F)cc(F)c1F observedvalue=inactive
compound=Clc1ccccc1-c1ccccc1Cl observedvalue=inactive
compound="Cc1cc(C)cc(C(=O)OC2C[C@H]3CC[C@@H](C2)N3C)c1 (stereo partly specified)" observedvalue=inactive
compound=CC(=O)OO observedvalue=inactive
compound=c1cc2c(c(NC3=NCCN3)c1)CCCC2 observedvalue=inactive
compound="C[N+]1([O-])[C@@H]2CC(OC(=O)[C@H](CO)c3ccccc3)C[C@H]1[C@@H]1O[C@@H]12 (stereo partly specified)" observedvalue=inactive
compound=CN[C@@H]1C[C@@H](c2ccc(Cl)c(Cl)c2)c2ccccc21 observedvalue=inactive
compound=C[C@@H]1[C@H](O)[C@@H](C)/C=C/C=C/CC/C=C/C=C/C=C/C=C/[C@H](O[C@H]2O[C@@H](C)[C@H](O)[C@@H](N)[C@H]2O)CC2O[C@](O)(C[C@@H](O)[C@H](O)CC[C@@H](O)C[C@@H](O)C[C@@H](O)CC(=O)O[C@H]1C)C[C@H](O)[C@H]2C(=O)O observedvalue=inactive
compound="c1ccc(C2(c3ccccc3)CC2C2=NCCN2)cc1 (stereo unspecified)" observedvalue=inactive
compound=[2H]C([2H])([2H])[C@H](N)Cc1ccccc1 observedvalue=inactive
compound=C[C@]12CCC(=O)C=C1C=C[C@@H]1[C@@H]2CC[C@@]2(C)[C@H]1CC[C@@]2(O)CCC(=O)O observedvalue=inactive
compound=CC(=O)OCC(=O)[C@H]1CC[C@H]2[C@@H]3CC[C@H]4C[C@H](O)CC[C@]4(C)[C@H]3C(=O)C[C@]12C observedvalue=inactive
compound=O=C1C(I)=CC(=C(c2cc(I)c(O)c(I)c2)c2ccccc2C(=O)O)C=C1I observedvalue=inactive

----------
targetSystem: Acetylcholinesterase (Homo sapiens)
experimentalDetails: Acetylcholinesterase (AChE) small molecule antagonists: enzyme-based qHTS assay (AID 1347397); note: % is set by controls: 0 for no effect and ±100 for the full control effect; nearly all actives have a fitted effect of over 55% in size
recordedConditions: AChE enzyme activity inhibition; series mostly up to 115 µM
From the text: National Center for Advancing Translational Sciences [NCATS] Division of Preclinical Innovation [DPI] U.S. Environmental Protection Agency [EPA] National Institutes of Environmental Health Sciences [NIEHS] National Toxicology Program [NTP] U.S. Food and Drug Administration [FDA] Acetylcholinesterase (AChE) is the primary cholinesterase in the body that hydrolyzes a key neurotransmitter, acetylcholine. Inhibition of AChE activity can lead to neurotoxicity. […]
Active and inactive are the calls of the source. Calls come from the whole dose curve.
assayReadout: outcome

compound="O=C(c1ccccc1)C(O)c1ccccc1 (configuration not stated)" observedvalue=inactive
compound=C=Cc1ccccn1 observedvalue=inactive
compound="CN1CCN(C2Cc3ccccc3Sc3ccc(Cl)cc32)CC1 (configuration not stated)" observedvalue=inactive
compound=CC(C)[C@@H]1CC[C@@H](C)C[C@H]1O observedvalue=inactive
compound=Cc1c(C(=O)c2c[nH]n(C)c2=O)ccc(S(C)(=O)=O)c1C1=NOCC1 observedvalue=inactive
compound=CC(=O)OCC(=O)[C@@]1(O)[C@H](C)C[C@H]2[C@@H]3CCC4=CC(=O)C=C[C@]4(C)[C@@]3(F)[C@@H](O)C[C@@]21C observedvalue=inactive
compound=Nc1ccc(Cl)cc1[N+](=O)[O-] observedvalue=inactive
compound=N[C@H](Cc1c[nH]c2ccccc12)C(=O)O observedvalue=inactive
compound=CCC(C)(C)OC observedvalue=inactive
compound=C=C(C)C(=O)OCCC[Si](OC)(OC)OC observedvalue=inactive
compound=O=C(O)c1[nH]n(-c2ccc(S(=O)(=O)O)cc2)c(=O)c1N=Nc1ccc(S(=O)(=O)O)cc1 observedvalue=inactive
compound="CCCOC(=O)C(C)O (configuration not stated)" observedvalue=inactive
compound=CN=C(NC#N)NCCSCc1nc[nH]c1C observedvalue=inactive
compound=O=[N+]([O-])c1cccc(S(=O)(=O)O)c1 observedvalue=inactive
compound=C=C(c1ccc(C(=O)O)cc1)c1cc2c(cc1C)C(C)(C)CCC2(C)C observedvalue=inactive
compound=Cc1ccccc1OCC(=O)O observedvalue=inactive
compound=CCCCCCCOC(C)=O observedvalue=inactive
compound=COc1cc(NS(=O)(=O)c2ccc(N)cc2)nc(OC)n1 observedvalue=inactive
compound=COc1cccc(N(C)C(=S)Oc2ccc3c(c2)CCCC3)n1 observedvalue=inactive
compound=CCCCCCC(=O)O observedvalue=inactive
compound=Cc1cc(C)c(/C=C2\C(=O)Nc3ccccc32)[nH]1 observedvalue=inactive
compound=CC(C)COC(=O)c1ccccc1 observedvalue=inactive
compound=C=C(C)C(=O)OCCOCCOCCOC(=O)C(=C)C observedvalue=inactive
compound=N[C@@H](Cc1cc(I)c(Oc2ccc(O)c(I)c2)c(I)c1)C(=O)O observedvalue=inactive
compound=O[Si](c1ccccc1)(c1ccccc1)c1ccccc1 observedvalue=inactive
compound=CC(C)=CCC/C(C)=C/CC/C(C)=C/CO observedvalue=inactive
compound=CN(C)CCN(C)CCN(C)C observedvalue=inactive

----------
experimentalDetails: qHTS assay to identify small molecule that activate the aryl hydrocarbon receptor (AhR) signaling pathway - cell viability counter screen (AID 743086); note: nearly all actives have a fitted effect of over 45% in size
recordedConditions: HepG2-AhR-luc viability, CellTiter-Fluor, 24 h; series mostly up to 70.3 µM
Records with an inconclusive call do not appear. The source made the active and inactive calls. Calls come from the whole dose curve; as a rule, active = well fitted cell-killing curve with a large enough effect in the repeat runs; inconclusive = weak or mixed curves, or effect the other way; inactive = flat fitted curve, though single readings scatter.
Classes used: active, inactive

molecule="CC(N)Cc1ccc2c(c1)OCO2 (stereo not given)" categorylabel=inactive
molecule="Clc1ccc(C(Cn2ccnc2)OCc2csc3c(Cl)cccc23)c(Cl)c1 (stereo not given)" categorylabel=inactive
molecule=COc1ccc(C(c2ccc(OC)cc2)C(Cl)(Cl)Cl)cc1 categorylabel=inactive
molecule="C[N+]1(C)CCCCC1COC(=O)C(O)(c1ccccc1)c1ccccc1 (stereo not given)" categorylabel=inactive
molecule=CCC(=O)O[C@@](Cc1ccccc1)(c1ccccc1)[C@@H](C)CN(C)C categorylabel=inactive
molecule="O=C1C[C@@H]2OCC=C3CN4CC[C@]56c7ccccc7N1[C@H]5[C@H]2[C@H]3C[C@H]46 (tested in a mixture with another compound)" categorylabel=inactive
molecule=CCC/C=C/C=C/C(=O)O[C@H]1/C(=C/C(=O)OC)C[C@H]2C[C@H]([C@@H](C)O)OC(=O)C[C@H](O)C[C@@H]3C[C@H](OC(C)=O)C(C)(C)[C@](O)(C[C@@H]4C/C(=C/C(=O)OC)C[C@H](/C=C/C(C)(C)[C@]1(O)O2)O4)O3 categorylabel=inactive
molecule=COC(=O)[C@]12CCC(C)(C)C[C@H]1[C@H]1C(=O)C=C3[C@@]4(C)C=C(C#N)C(=O)C(C)(C)[C@@H]4CC[C@@]3(C)[C@]1(C)CC2 categorylabel=active
molecule=CCCN1CCC[C@H](c2cccc(O)c2)C1 categorylabel=inactive
molecule=F/C(COc1ccc2c(c1)[nH]c1ccccc12)=C1/CN2CCC1CC2 categorylabel=active
molecule=C/C=C(\CC)C(=O)NC(N)=O categorylabel=inactive
molecule=Cc1nnc2n1-c1ccc(Cl)cc1C(c1ccccc1)=NC2 categorylabel=inactive
molecule=O=C1CN=C(c2ccccc2)c2cc(Cl)ccc2N1 categorylabel=inactive
molecule="CCNCC(O)c1cccc(O)c1 (stereo not given)" categorylabel=inactive
molecule=CO/C=C(/C(=O)OC)c1ccccc1Oc1cc(Oc2ccccc2C#N)ncn1 categorylabel=active
molecule=O=P(O)(O)C(Cl)(Cl)P(=O)(O)O categorylabel=inactive
molecule="C#CCN1CC(=O)N(COC(=O)C2C(C=C(C)C)C2(C)C)C1=O (stereo not given)" categorylabel=inactive
molecule="CCCC(C)C1(CC)C(=O)NC(=O)NC1=O (stereo not given)" categorylabel=inactive
molecule=CCCCCCC(=O)O[C@H]1CC[C@H]2[C@@H]3CC[C@H]4CC(=O)C=C(C)[C@]4(C)[C@H]3CC[C@]12C categorylabel=inactive
molecule=Cc1nnc2n1-c1ccc(Cl)cc1C(c1ccccc1Cl)=NC2 categorylabel=inactive

----------
targetSystem: Nuclear receptor subfamily 1 group I member 2 (Rattus norvegicus) (UniProt Q9R1A7)
Sequence (Q9R1A7 whole entry, looked up): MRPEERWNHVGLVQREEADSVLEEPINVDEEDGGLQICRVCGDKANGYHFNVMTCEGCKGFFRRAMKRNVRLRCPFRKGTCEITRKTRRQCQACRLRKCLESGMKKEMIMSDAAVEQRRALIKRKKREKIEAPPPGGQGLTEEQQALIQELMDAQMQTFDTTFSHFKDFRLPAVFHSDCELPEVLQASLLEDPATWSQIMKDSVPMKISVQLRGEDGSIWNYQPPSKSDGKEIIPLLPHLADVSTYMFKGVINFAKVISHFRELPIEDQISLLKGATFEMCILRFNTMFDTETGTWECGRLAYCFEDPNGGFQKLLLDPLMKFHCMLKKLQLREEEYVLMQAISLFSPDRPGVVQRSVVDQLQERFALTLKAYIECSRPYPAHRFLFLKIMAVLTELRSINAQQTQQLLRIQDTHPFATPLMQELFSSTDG
experimentalDetails: Rat pregnane X receptor (rPXR) activation by small molecules, qHTS assay (AID 1346983); note: % is set by controls: 0 for no effect and ±100 for the full control effect; nearly all actives have a fitted effect of over 20% in size
recordedConditions: rPXR luciferase reporter cells, One-Glo luminescence, 24 h; active compounds read high
Results filed as inconclusive are left out.
Examples of compounds with documented max activation follow.
assayReadout: max activation (%)

compound=C=CC[C@]1(O)CC[C@H]2[C@@H]3CCC4=CCCC[C@@H]4[C@H]3CC[C@@]21C assayreadout="max activation" observedvalue=1.23
compound=CCC(C)(S(=O)(=O)CC)S(=O)(=O)CC assayreadout="max activation" observedvalue=-2.56
compound=[S]=[Sb](=[S])[S][Sb](=[S])=[S] assayreadout="max activation" observedvalue=-0.774
compound=C[C@H]1CC[C@]2(NC1)O[C@H]1C[C@H]3[C@@H]4CC[C@H]5C[C@@H](O[C@@H]6O[C@H](CO)[C@H](O[C@@H]7O[C@H](CO)[C@@H](O)[C@H](O[C@@H]8OC[C@@H](O)[C@H](O)[C@H]8O)[C@H]7O[C@@H]7O[C@H](CO)[C@@H](O)[C@H](O)[C@H]7O)[C@H](O)[C@H]6O)CC[C@]5(C)[C@H]4CC[C@]3(C)[C@H]1[C@@H]2C assayreadout="max activation" observedvalue=-24.3
compound=CCC(=O)O[C@@](Cc1ccccc1)(c1ccccc1)[C@@H](C)CN(C)C assayreadout="max activation" observedvalue=0.731
compound="CCCC(C)C1(CC)C(=O)NC(=O)NC1=O (stereo not given)" assayreadout="max activation" observedvalue=-2.06
compound=C[C@]12CC[C@H]3[C@@H](CCC4=C(O)C(=O)CC[C@@H]43)[C@@H]1CC[C@@H]2OC(=O)CCC1CCCC1 assayreadout="max activation" observedvalue=-2.22
compound=CC(=O)OO assayreadout="max activation" observedvalue=-0.773
compound=Cc1ccccc1-n1c(CF)nc2ccc(N)cc2c1=O assayreadout="max activation" observedvalue=-3.24
compound="CCCC(C)(COC(N)=O)COC(=O)NC1CC1 (stereo not given)" assayreadout="max activation" observedvalue=-2.91
compound=CCC/C=C/C=C/C(=O)O[C@H]1/C(=C/C(=O)OC)C[C@H]2C[C@H]([C@@H](C)O)OC(=O)C[C@H](O)C[C@@H]3C[C@H](OC(C)=O)C(C)(C)[C@](O)(C[C@@H]4C/C(=C/C(=O)OC)C[C@H](/C=C/C(C)(C)[C@]1(O)O2)O4)O3 assayreadout="max activation" observedvalue=2.43
compound=O=C1CCO1 assayreadout="max activation" observedvalue=-0.633
compound="CCCC(=O)OC(C(Cl)(Cl)Cl)P(=O)(OC)OC (stereo not given)" assayreadout="max activation" observedvalue=0.574
compound="CC(=O)OC1CN2CCC1CC2 (stereo not given)" assayreadout="max activation" observedvalue=-0.436
compound=CNC(=O)Oc1ccccc1C(=O)Nc1ccccc1 assayreadout="max activation" observedvalue=-3.26
